# PROTOCOL TEXT: cytotoxicity in NIH3T3 fibroblasts, dose response, cytotoxicity control, cell-based, plate reader, cherry-pick, two tests (AID 651900)
# CONDITION: test 2 concentration series, at 26 µM
The list shows a part of the results.
# activity annotations

{"COMPOUND": "CC1(C)CC(=O)C=C(c2ccc3ncccc3c2)C1", "activity [%]": -5.48}
{"COMPOUND": "COc1cc(-c2n[nH]c(=S)n2Cc2ccccc2)cc(OC)c1OC", "activity [%]": 8.41}
{"COMPOUND": "Cc1c(OC(C)C(=O)NCC2CCC(C(=O)O)CC2)ccc2c1oc(=O)c1ccccc12 (stereo not given)", "activity [%]": 1.67}
{"COMPOUND": "Cc1nc2nc(SCC(=O)NCc3ccco3)nn2c(C)c1Cc1ccccc1", "activity [%]": -7.64}
{"COMPOUND": "C=CCn1c(SCc2c(C(=O)OC)sc(N)c2C(=O)OC)nnc1-c1ccc(Cl)cc1", "activity [%]": -11.5}
